- experimentalSystem: T1, human RXFP1 (human, UniProt Q9HBX9 1-757)
- T1 sequence (looked up): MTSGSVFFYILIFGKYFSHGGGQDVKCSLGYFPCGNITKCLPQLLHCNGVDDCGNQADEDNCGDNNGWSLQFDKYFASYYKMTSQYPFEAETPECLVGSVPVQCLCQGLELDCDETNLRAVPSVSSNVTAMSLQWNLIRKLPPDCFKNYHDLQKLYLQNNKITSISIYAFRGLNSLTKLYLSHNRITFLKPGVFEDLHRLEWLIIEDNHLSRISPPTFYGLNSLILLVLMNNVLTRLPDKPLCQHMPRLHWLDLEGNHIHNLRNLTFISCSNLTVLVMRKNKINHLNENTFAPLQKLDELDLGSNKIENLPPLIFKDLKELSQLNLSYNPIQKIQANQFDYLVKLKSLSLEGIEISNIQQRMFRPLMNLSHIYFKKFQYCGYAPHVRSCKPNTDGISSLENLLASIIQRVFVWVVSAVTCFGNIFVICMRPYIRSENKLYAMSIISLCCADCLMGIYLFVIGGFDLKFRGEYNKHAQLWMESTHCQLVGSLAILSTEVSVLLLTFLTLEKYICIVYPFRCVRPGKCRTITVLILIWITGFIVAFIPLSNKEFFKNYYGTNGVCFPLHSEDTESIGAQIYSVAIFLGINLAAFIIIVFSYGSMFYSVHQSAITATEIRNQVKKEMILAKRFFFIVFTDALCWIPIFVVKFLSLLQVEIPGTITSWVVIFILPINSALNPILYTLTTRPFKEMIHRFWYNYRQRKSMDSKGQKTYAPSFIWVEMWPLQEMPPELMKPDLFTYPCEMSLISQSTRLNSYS
- protocolSummary: cell-based or functional assay
Positions of bridges follow the written chain, without caps; N, C: chain ends. Non-standard residues stand in square brackets, D forms with d. Chains are numbered I, II in the order given. No end group written: not given here. PEG20K = 20 kDa polyethylene glycol, linked to pAF (e.g. via oxime linkage); Phe(4-Ac) = CC(=O)c1ccc(C[C@H](N)C(=O)O)cc1
parameter: Functional Assay Raw EC50 Values [ng/mL]; cAMP increase in THP-1 cells, 11/4/2010 (ng/mL)
I only need the number, in ng/mL, no unit after it.

binder: RLX-A-BW28-20KPEG (ligand, not fully specified (bridges); ends and bridges not checked) chain 1: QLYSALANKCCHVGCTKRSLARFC chain 2: ASWMEEVIKLCGRELVRAQIAICGMST[Phe(4-Ac)](PEG20K)S
reportedResult: 172
--
binder: RLX-A-BV7-20KPEG (ligand, not fully specified (bridges); ends and bridges not checked) chain 1: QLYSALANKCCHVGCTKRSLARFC chain 2: ASWMEE[Phe(4-Ac)](PEG20K)IKLCGRELVRAQIAICGMSTWS
reportedResult: 54
--
binder: wild-type relaxin (human relaxin 2) (ligand, disulfide I:10-I:15, I:11-II:11, I:24-II:23) chain 1: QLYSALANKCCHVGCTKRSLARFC chain 2: DSWMEEVIKLCGRELVRAQIAICGMSTWS
reportedResult: 1.5
--
binder: RLX-A-BA18-20KPEG (ligand, not fully specified (bridges); ends and bridges not checked) chain 1: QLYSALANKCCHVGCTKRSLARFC chain 2: ASWMEEVIKLCGRELVR[Phe(4-Ac)](PEG20K)QIAICGMSTWS
reportedResult: 172

Next, consider the following binder.
Measured Functional Assay Raw EC50 Values [ng/mL]; cAMP increase in THP-1 cells, 11/4/2010, RLX-A-WT (human relaxin 2 with alanine at the first position of the B chain) (ligand, not fully specified (bridges); ends and bridges not checked) chain 1: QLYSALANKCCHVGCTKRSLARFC chain 2: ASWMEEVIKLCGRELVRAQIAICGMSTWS : 3.6

Values were extracted from patent US20240189392A1.
